These data points were gathered from the supplement of paper PMC10567573.

B1: DLC1 (parent)
chain: NDDSADYQHFLQDCVDGLFKEVKE

- Variants of: B1
- Assay remarks: protein stability index of a GFP-peptide fusion (GPS, HEK-293T) (PSI 1-6); higher = more stable;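 also: lentivirally expressed fusions sorted by FACS into six bins by GFP to DsRed ratio, PSI derived from sequencing read proportions per bin multiplied by bin number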
- Condition set: c terminus: a fixed tail appended
Property: protein stability index

[ask] Please report the recorded protein stability index for A5G .
[reply] 2.4

[ask] Please report the recorded protein stability index for Q12D .
[reply] 4.83

[ask] Please report the recorded protein stability index for E21G .
[reply] 3.51

[ask] Please report the recorded protein stability index for H9D .
[reply] 2.83

[ask] Please report the recorded protein stability index for K20E .
[reply] 3.55

[ask] Please report the recorded protein stability index for D3E .
[reply] 3.85

[ask] Please report the recorded protein stability index for K23E .
[reply] 3.72

[ask] Please report the recorded protein stability index for D16K .
[reply] 2.56

[ask] Please report the recorded protein stability index for A5Q .
[reply] 2.55

[ask] Please report the recorded protein stability index for A5H .
[reply] 2.55

[ask] Please report the recorded protein stability index for A5I .
[reply] 2.05

[ask] Please report the recorded protein stability index for S4N .
[reply] 2.57

[ask] Please report the recorded protein stability index for C14Y .
[reply] 2.54
